ASSAY_TARGET: T1, TNFR1 (Homo sapiens, UniProt P19438)
T1 chain: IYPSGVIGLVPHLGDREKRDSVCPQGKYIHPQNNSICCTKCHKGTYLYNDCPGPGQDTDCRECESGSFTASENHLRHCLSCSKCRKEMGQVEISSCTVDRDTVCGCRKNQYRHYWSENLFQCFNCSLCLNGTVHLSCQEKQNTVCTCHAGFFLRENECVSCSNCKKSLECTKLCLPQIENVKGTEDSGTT
ASSAY_EXPLANATION: yeast display SC50
Binary classification by apparent Kd (screen), with 700 pM as an inclusive lower bound for 1; all other cases are -1.

Inquiry: Hello, I need to know if P32Y (designed binder) MTLQELLREEALRRAEAEAFRYALELLAEKFYEQKEYLLDLAEEIESQIRSLSGVDVEDVRKFLDKEWAWVKELLAEHPAELAEVEAARAARLAELRAEVEAKVAA has measured apparent Kd (screen) not below 700 pM. Thanks!
Reply text: -1

Inquiry: Hello, I need to know if E44N (designed binder) MTLQELLREEALRRAEAEAFRYALELLAEKFPEQKEYLLDLAENIESQIRSLSGVDVEDVRKFLDKEWAWVKELLAEHPAELAEVEAARAARLAELRAEVEAKVAA has measured apparent Kd (screen) not below 700 pM. Thanks!
Reply text: 1

Inquiry: Hello, I need to know if D59W (designed binder) MTLQELLREEALRRAEAEAFRYALELLAEKFPEQKEYLLDLAEEIESQIRSLSGVDVEWVRKFLDKEWAWVKELLAEHPAELAEVEAARAARLAELRAEVEAKVAA has measured apparent Kd (screen) not below 700 pM. Thanks!
Reply text: 1

Inquiry: Hello, I need to know if F63G (designed binder) MTLQELLREEALRRAEAEAFRYALELLAEKFPEQKEYLLDLAEEIESQIRSLSGVDVEDVRKGLDKEWAWVKELLAEHPAELAEVEAARAARLAELRAEVEAKVAA has measured apparent Kd (screen) not below 700 pM. Thanks!
Reply text: 1

Inquiry: Hello, I need to know if D65E (designed binder) MTLQELLREEALRRAEAEAFRYALELLAEKFPEQKEYLLDLAEEIESQIRSLSGVDVEDVRKFLEKEWAWVKELLAEHPAELAEVEAARAARLAELRAEVEAKVAA has measured apparent Kd (screen) not below 700 pM. Thanks!
Reply text: -1

Inquiry: Hello, I need to know if W68D (designed binder) MTLQELLREEALRRAEAEAFRYALELLAEKFPEQKEYLLDLAEEIESQIRSLSGVDVEDVRKFLDKEDAWVKELLAEHPAELAEVEAARAARLAELRAEVEAKVAA has measured apparent Kd (screen) not below 700 pM. Thanks!
Reply text: 1

Inquiry: Hello, I need to know if L26N (designed binder) MTLQELLREEALRRAEAEAFRYALENLAEKFPEQKEYLLDLAEEIESQIRSLSGVDVEDVRKFLDKEWAWVKELLAEHPAELAEVEAARAARLAELRAEVEAKVAA has measured apparent Kd (screen) not below 700 pM. Thanks!
Reply text: -1

Inquiry: Hello, I need to know if A23D (designed binder) MTLQELLREEALRRAEAEAFRYDLELLAEKFPEQKEYLLDLAEEIESQIRSLSGVDVEDVRKFLDKEWAWVKELLAEHPAELAEVEAARAARLAELRAEVEAKVAA has measured apparent Kd (screen) not below 700 pM. Thanks!
Reply text: 1

Inquiry: Hello, I need to know if A28V (designed binder) MTLQELLREEALRRAEAEAFRYALELLVEKFPEQKEYLLDLAEEIESQIRSLSGVDVEDVRKFLDKEWAWVKELLAEHPAELAEVEAARAARLAELRAEVEAKVAA has measured apparent Kd (screen) not below 700 pM. Thanks!
Reply text: 1

Inquiry: Hello, I need to know if R61V (designed binder) MTLQELLREEALRRAEAEAFRYALELLAEKFPEQKEYLLDLAEEIESQIRSLSGVDVEDVVKFLDKEWAWVKELLAEHPAELAEVEAARAARLAELRAEVEAKVAA has measured apparent Kd (screen) not below 700 pM. Thanks!
Reply text: -1

Inquiry: Hello, I need to know if R8Y (designed binder) MTLQELLYEEALRRAEAEAFRYALELLAEKFPEQKEYLLDLAEEIESQIRSLSGVDVEDVRKFLDKEWAWVKELLAEHPAELAEVEAARAARLAELRAEVEAKVAA has measured apparent Kd (screen) not below 700 pM. Thanks!
Reply text: 1

Inquiry: Hello, I need to know if L7P (designed binder) MTLQELPREEALRRAEAEAFRYALELLAEKFPEQKEYLLDLAEEIESQIRSLSGVDVEDVRKFLDKEWAWVKELLAEHPAELAEVEAARAARLAELRAEVEAKVAA has measured apparent Kd (screen) not below 700 pM. Thanks!
Reply text: 1

Inquiry: Hello, I need to know if E101C (designed binder) MTLQELLREEALRRAEAEAFRYALELLAEKFPEQKEYLLDLAEEIESQIRSLSGVDVEDVRKFLDKEWAWVKELLAEHPAELAEVEAARAARLAELRAEVCAKVAA has measured apparent Kd (screen) not below 700 pM. Thanks!
Reply text: -1

Inquiry: Hello, I need to know if L39R (designed binder) MTLQELLREEALRRAEAEAFRYALELLAEKFPEQKEYLRDLAEEIESQIRSLSGVDVEDVRKFLDKEWAWVKELLAEHPAELAEVEAARAARLAELRAEVEAKVAA has measured apparent Kd (screen) not below 700 pM. Thanks!
Reply text: 1
